Data origin, for the record: patent US20230322908A1

# experimental_system: T1, recombinant human full-length TDP-43 (TAR DNA-binding protein 43), soluble (human, UniProt Q13148 1-414)
# T1 construct: Used on Luminex beads, coated on ELISA plates, and immobilized or injected in SPR; also called FL TDP-43; TDP-43 protein
# T1 sequence (Q13148 whole entry): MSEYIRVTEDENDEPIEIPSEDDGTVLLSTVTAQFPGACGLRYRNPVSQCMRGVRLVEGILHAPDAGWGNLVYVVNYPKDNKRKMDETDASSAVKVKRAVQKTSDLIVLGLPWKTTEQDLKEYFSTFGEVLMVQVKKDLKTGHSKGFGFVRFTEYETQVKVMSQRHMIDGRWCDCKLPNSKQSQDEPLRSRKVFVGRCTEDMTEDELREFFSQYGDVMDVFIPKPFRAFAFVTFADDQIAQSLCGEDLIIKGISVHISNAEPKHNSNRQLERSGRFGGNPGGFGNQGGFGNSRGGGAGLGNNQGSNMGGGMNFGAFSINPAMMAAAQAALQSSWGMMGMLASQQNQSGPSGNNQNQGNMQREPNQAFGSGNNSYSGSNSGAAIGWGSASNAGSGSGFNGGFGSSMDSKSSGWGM
# test_method_notes: SPR 8K, immobilized soluble TDP-43
# Protocol: The instrument was primed with running buffer PBS-P+ and flow cells (Fc) 1 and 2 of channels 1-8 were activated with a fresh solution of EDC/NHS (Amine Coupling Kit, 1:1 ratio of both reagents, GE Healthcare Life Sciences, BR-1006-33) at 10 µL/min for 420 sec. […] Results obtained from single-cycle kinetics were double-referenced using the blank Fc 1 and buffer cycles and evaluated using Biacore 8 K evaluation software using the 1:1 kinetic fit model with RI and global Rmax. […]
Kind request: treat 30000 M⁻¹ s⁻¹ as inclusive, so kon at 30000 M⁻¹ s⁻¹ or higher is t, anything lower is f.

* hACI-7069-633B12-Ab1_H16L14 (IgG4) (antibody, V domains shown) VH: EVQLVQSGAEVKKPGASVKVSCKASGFTFTEYSMHWVRQAPGQRLEWMGGINPGNAGTSYNQKFKGRVTITVDTSASTAYMELSSLRSEDTAVYYCARESWGQGTTVTVSS VL: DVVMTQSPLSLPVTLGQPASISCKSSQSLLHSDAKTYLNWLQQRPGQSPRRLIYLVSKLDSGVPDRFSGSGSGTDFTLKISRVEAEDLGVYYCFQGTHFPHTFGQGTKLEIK | t
* hACI-7069-633B12-Ab1_H20L19 (IgG4) (antibody, V domains shown) VH: EVQLVQSGAEVKKPGASVKVSCKTSGFTFTEYSMHWVRQAPGQRLEWIGGINPGNAGTSYNQKFKGRVTITVDTSASTAYMELSSLRSEDTAVYYCARESWGQGTTVTVSS VL: DVVMTQSPLSLPVTLGQPASISCKSSQSLLHSDAKTYLNWLQQRPGQSPKRLIYLVSKLDSRVPDRFSGSGSGTDFTLKISRVEAEDLGVYYCFQGTHFPHTFGQGTKLEIK | f
* hACI-7069-633B12-Ab1_H20L18 (IgG4) (antibody, V domains shown) VH: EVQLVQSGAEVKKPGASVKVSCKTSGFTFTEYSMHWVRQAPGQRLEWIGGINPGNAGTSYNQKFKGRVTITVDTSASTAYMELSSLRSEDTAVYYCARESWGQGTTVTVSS VL: DVVMTQSPLSLPVTLGQPASISCKSSQSLLHSDAKTYLNWLQQRPGQSPRRLIYLVSKLDSRVPDRFSGSGSGTDFTLKISRVEAEDLGVYYCFQGTHFPHTFGQGTKLEIK | t
* hACI-7069-633B12-Ab1_H15L14 (IgG4) (antibody, V domains shown) VH: QVQLVQSGAEVKKPGASVKVSCKASGFTFTEYSMHWVRQAPGQRLEWMGGINPGNAGTSYNQKFKGRVTITVDTSASTAYMELSSLRSEDTAVYYCARESWGQGTTVTVSS VL: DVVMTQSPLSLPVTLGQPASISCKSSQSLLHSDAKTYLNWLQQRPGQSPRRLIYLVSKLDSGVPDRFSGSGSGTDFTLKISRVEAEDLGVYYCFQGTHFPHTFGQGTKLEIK | f
* hACI-7069-633B12-Ab1_H17L14 (IgG4) (antibody, V domains shown) VH: QVQLVQSGAEVKKPGASVKVSCKASGFTFTEYSMHWVKQAPGQRLEWMGGINPGNAGTSYNQKFKGRVTITVDTSASTAYMELSSLRSEDTAVYYCARESWGQGTTVTVSS VL: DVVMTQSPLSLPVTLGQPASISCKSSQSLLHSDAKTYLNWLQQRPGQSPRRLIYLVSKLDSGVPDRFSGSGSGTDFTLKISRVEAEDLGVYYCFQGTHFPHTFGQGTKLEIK | t
* hACI-7069-633B12-Ab1_H19L19 (IgG4) (antibody, V domains shown) VH: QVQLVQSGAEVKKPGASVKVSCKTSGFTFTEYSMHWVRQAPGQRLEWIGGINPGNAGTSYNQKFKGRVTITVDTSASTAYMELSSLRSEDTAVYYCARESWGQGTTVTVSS VL: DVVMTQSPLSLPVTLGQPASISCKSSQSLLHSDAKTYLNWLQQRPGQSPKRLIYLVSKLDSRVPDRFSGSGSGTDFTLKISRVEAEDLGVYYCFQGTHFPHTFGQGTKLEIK | f
* hACI-7069-633B12-Ab1_H19L17 (IgG4) (antibody, V domains shown) VH: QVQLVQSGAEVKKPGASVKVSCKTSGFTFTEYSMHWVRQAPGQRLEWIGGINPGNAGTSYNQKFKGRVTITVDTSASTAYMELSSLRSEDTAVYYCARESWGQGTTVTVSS VL: DVVMTQSPLSLPVTLGQPASISCKSSQSLLHSDAKTYLNWLLQRPGQSPRRLIYLVSKLDSGVPDRFSGSGSGTDFTLKISRVEAEDLGVYYCFQGTHFPHTFGQGTKLEIK | f
* hACI-7069-633B12-Ab1_H19L18 (IgG4) (antibody, V domains shown) VH: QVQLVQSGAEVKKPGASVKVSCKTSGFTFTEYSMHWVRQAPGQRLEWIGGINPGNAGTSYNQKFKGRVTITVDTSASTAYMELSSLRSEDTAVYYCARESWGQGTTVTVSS VL: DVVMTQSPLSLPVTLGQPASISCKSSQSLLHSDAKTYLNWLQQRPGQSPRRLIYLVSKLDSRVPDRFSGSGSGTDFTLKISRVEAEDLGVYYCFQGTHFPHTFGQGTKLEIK | t

# next binder below
For this binder, is measured kon 30000 M⁻¹ s⁻¹ or higher? hACI-7069-633B12-Ab1_H20L14 (IgG4) (antibody, V domains shown) VH: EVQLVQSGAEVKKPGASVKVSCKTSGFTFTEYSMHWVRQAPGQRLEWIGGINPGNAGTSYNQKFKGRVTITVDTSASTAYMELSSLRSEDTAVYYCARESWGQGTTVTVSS VL: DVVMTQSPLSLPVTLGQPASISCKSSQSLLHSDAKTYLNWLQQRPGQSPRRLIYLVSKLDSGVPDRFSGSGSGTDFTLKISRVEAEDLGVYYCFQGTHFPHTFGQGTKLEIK
f
